All figures here come from ChEMBL document CHEMBL3885861.

Species on record: Rattus norvegicus
Test: Open TG-GATES - Regimen: Daily Repeat
Assay type: toxicity, organism-based, Sprague-Dawley
Parameters: regimen Daily Repeat, gender Male, age 6 weeks
Details: in vivo, po, 0 mg/kg, […], tissue Plasma, route gavage, dose level Control, time 28 day
ASSAY ENDPOINT: Na (meq/L)
Numbers only here, please. The scale is meq/L.

Worked cases, answers included:
CCOC(=O)[C@H](CCc1ccccc1)N[C@@H](C)C(=O)N1CCC[C@H]1C(=O)O : 140.2
C#C[C@]1(O)CC[C@H]2[C@@H]3CCC4=Cc5oncc5C[C@]4(C)[C@H]3CC[C@@]21C : 141.8
CN1C(C(=O)Nc2ccccn2)=C(O)c2sc(Cl)cc2S1(=O)=O : 141.6
Cc1cccc(Nc2ccccc2C(=O)O)c1C : 140.6

In: Query: Na; subject: CC(CN1c2ccccc2Sc2ccccc21)N(C)C (stereo not given)
Out: 143.2

---

# maps each entry to its BUN
Species: Rattus norvegicus
Experiment: Open TG-GATES - Regimen: Daily Repeat
Assay type: toxicity, organism-based, Sprague-Dawley
Set-up: regimen Daily Repeat, gender Male, age 6 weeks
Settings: in vivo, po, 0 mg/kg, […], tissue Plasma, route gavage, dose level Control, time 14 day
Numeric only. Scale: mg/dL

Consider the worked cases shown below.
C1CCC(C(CC2CCCCN2)C2CCCCC2)CC1 (stereo not drawn) [PERHEXILINE] : 19
CN(C)[C@@H]1C(O)=C(C(N)=O)C(=O)[C@@]2(O)C(O)=C3C(=O)c4c(O)cccc4[C@@](C)(O)[C@H]3C[C@@H]12 [TETRACYCLINE] : 18.6
Cc1cccc(Nc2ccccc2C(=O)O)c1C [MEFENAMIC ACID] : 16

Now for a further compound.
In: # input compound: CC(CN1c2ccccc2Sc2ccccc21)N(C)C (stereo not drawn) [PROMETHAZINE] ; wanted: its BUN
Out: 18.8

---

Species on record: Rattus norvegicus
Experiment: Open TG-GATES - Regimen: Single
Type: toxicity, organism-based, Sprague-Dawley
Design: regimen Single, gender Male, age 6 weeks
Conditions: in vivo, po, 0 mg/kg, 3 h, tissue Liver, route gavage, dose level Control
ASSAY ENDPOINT: LIVER (g)
Enter your answer as a number in g; do not include the unit.

C1CCC(C(CC2CCCCN2)C2CCCCC2)CC1 (stereo not given) : 9.2
CC(=O)Nc1nnc(S(N)(=O)=O)s1 [ACETAZOLAMIDE] : 9.8
Cc1cccc(Nc2ccccc2C(=O)O)c1C : 9.7
C#C[C@]1(O)CC[C@H]2[C@@H]3CCC4=Cc5oncc5C[C@]4(C)[C@H]3CC[C@@]21C : 10.1
CN1C(C(=O)Nc2ccccn2)=C(O)c2sc(Cl)cc2S1(=O)=O : 10.1
Clc1c(Cl)c(Cl)c(Cl)c(Cl)c1Cl : 9.9
COc1cc([C@@H]2c3cc4c(cc3[C@@H](O[C@@H]3O[C@@H]5CO[C@@H](C)O[C@H]5[C@H](O)[C@H]3O)[C@H]3COC(=O)[C@H]23)OCO4)cc(OC)c1O [ETOPOSIDE] : 9.5
CN(C)[C@@H]1C(O)=C(C(N)=O)C(=O)[C@@]2(O)C(O)=C3C(=O)c4c(O)cccc4[C@@](C)(O)[C@H]3C[C@@H]12 : 9
CC(CN1c2ccccc2Sc2ccccc21)N(C)C (stereo not given) : 9.9

Here is another compound to look at.
In: For the compound shown here, "CCOC(=O)[C@H](CCc1ccccc1)N[C@@H](C)C(=O)N1CCC[C@H]1C(=O)O" , give the reported LIVER.
Out: 10.5

---

Species on record: Rattus norvegicus
Assay: Open TG-GATES - Regimen: Daily Repeat
Type: toxicity, organism-based, Sprague-Dawley
Parameters: regimen Daily Repeat, gender Male, age 6 weeks
Conditions: in vivo, po, 0 mg/kg, 72 h, tissue Blood, route gavage, dose level Control, time 3 day
ASSAY ENDPOINT: PT (s)
Number in s, nothing else.

CC(=O)Nc1nnc(S(N)(=O)=O)s1 [ACETAZOLAMIDE] : 17
CCOC(=O)[C@H](CCc1ccccc1)N[C@@H](C)C(=O)N1CCC[C@H]1C(=O)O : 11.8
Clc1c(Cl)c(Cl)c(Cl)c(Cl)c1Cl : 11.8
CN1C(C(=O)Nc2ccccn2)=C(O)c2sc(Cl)cc2S1(=O)=O : 11.7

In: PT lookup needed for "CN(C)[C@@H]1C(O)=C(C(N)=O)C(=O)[C@@]2(O)C(O)=C3C(=O)c4c(O)cccc4[C@@](C)(O)[C@H]3C[C@@H]12" , thanks.
Out: 12.3

In: Queued: "Cc1cccc(Nc2ccccc2C(=O)O)c1C"
Out: 11.9

In: Next: C1CCC(C(CC2CCCCN2)C2CCCCC2)CC1 (centres undefined)
Out: 16.7

In: // repeat for "C#C[C@]1(O)CC[C@H]2[C@@H]3CCC4=Cc5oncc5C[C@]4(C)[C@H]3CC[C@@]21C" and report
Out: 15.5

In: Follow-up entry: CC(CN1c2ccccc2Sc2ccccc21)N(C)C (centres undefined)
Out: 16.1

---

// Ca lookup, one value per entry
Species: Rattus norvegicus
Assay: Open TG-GATES - Regimen: Daily Repeat
Assay type: toxicity, organism-based, Sprague-Dawley
Set-up: regimen Daily Repeat, gender Male, age 6 weeks
Details: in vivo, po, 0 mg/kg, […], tissue Plasma, route gavage, dose level Control, time 7 day
Write the figure, then the unit, nothing else.

See these solved cases before continuing.
CC(CN1c2ccccc2Sc2ccccc21)N(C)C (stereo not drawn) [PROMETHAZINE] : 10.7 mg/dL
CCOC(=O)[C@H](CCc1ccccc1)N[C@@H](C)C(=O)N1CCC[C@H]1C(=O)O : 10.7 mg/dL

Alright, here's another compound for you.
In: // returns reported Ca for input C1CCC(C(CC2CCCCN2)C2CCCCC2)CC1 (stereo not drawn) [PERHEXILINE]
Out: 10.5 mg/dL

---

Lym reference
Species: Rattus norvegicus
Experiment: Open TG-GATES - Regimen: Single
Assay type: toxicity, organism-based, Sprague-Dawley
Parameters: regimen Single, gender Male, age 6 weeks
Settings: in vivo, po, 0 mg/kg, 9 h, tissue Blood, route gavage, dose level Control
Unit % implied. Number only.

Here's what some known entries look like.
Clc1c(Cl)c(Cl)c(Cl)c(Cl)c1Cl : 75
COc1cc([C@@H]2c3cc4c(cc3[C@@H](O[C@@H]3O[C@@H]5CO[C@@H](C)O[C@H]5[C@H](O)[C@H]3O)[C@H]3COC(=O)[C@H]23)OCO4)cc(OC)c1O [ETOPOSIDE] : 74.4
Cc1cccc(Nc2ccccc2C(=O)O)c1C : 78.6
C#C[C@]1(O)CC[C@H]2[C@@H]3CCC4=Cc5oncc5C[C@]4(C)[C@H]3CC[C@@]21C : 83
CC(CN1c2ccccc2Sc2ccccc21)N(C)C (centres undefined) : 80

In: Which measured Lym value corresponds to C1CCC(C(CC2CCCCN2)C2CCCCC2)CC1 (centres undefined) ?
Out: 75.8

In: Next compound: "CN1C(C(=O)Nc2ccccn2)=C(O)c2sc(Cl)cc2S1(=O)=O"
Out: 74.4

In: Another compound to look at: "CN(C)[C@@H]1C(O)=C(C(N)=O)C(=O)[C@@]2(O)C(O)=C3C(=O)c4c(O)cccc4[C@@](C)(O)[C@H]3C[C@@H]12"
Out: 78

In: Same question for "CCOC(=O)[C@H](CCc1ccccc1)N[C@@H](C)C(=O)N1CCC[C@H]1C(=O)O" please.
Out: 81.4

---

Organism: Rattus norvegicus
Test: Open TG-GATES - Regimen: Single
Assay type: toxicity, organism-based, Sprague-Dawley
Parameters: regimen Single, gender Male, age 6 weeks
Details: in vivo, po, 0 mg/kg, 24 h, tissue Blood, route gavage, dose level Control
ASSAY ENDPOINT: Ht
Please answer using a numeric value trailed by its unit.

A selection of reference data follows.
O=[N+]([O-])c1ccc2c(c1)Cc1ccccc1-2 [2-NITROFLUORENE] : 38.9%
CN1C(C(=O)Nc2ccccn2)=C(O)c2sc(Cl)cc2S1(=O)=O [LORNOXICAM] : 40.7%

// next item, Ht requested
In: Quick check: Ht of "CCOC(=O)[C@H](CCc1ccccc1)N[C@@H](C)C(=O)N1CCC[C@H]1C(=O)O" ?
Out: 39.8%

---

Species: Rattus norvegicus
Assay: Open TG-GATES - Regimen: Single
Format: toxicity, organism-based, Sprague-Dawley
Design: regimen Single, gender Male, age 6 weeks
Settings: in vivo, po, 0 mg/kg, 24 h, tissue Blood, route gavage, dose level Control
ASSAY ENDPOINT: MCV (fL)
Quick reminder: number only, in fL, skip the unit.

Some solved entries appear below for comparison.
COc1cc([C@@H]2c3cc4c(cc3[C@@H](O[C@@H]3O[C@@H]5CO[C@@H](C)O[C@H]5[C@H](O)[C@H]3O)[C@H]3COC(=O)[C@H]23)OCO4)cc(OC)c1O [ETOPOSIDE] : 66.6
C1CCC(C(CC2CCCCN2)C2CCCCC2)CC1 (stereo unspecified) : 65.2
CN1C(C(=O)Nc2ccccn2)=C(O)c2sc(Cl)cc2S1(=O)=O : 62.6
Cc1cccc(Nc2ccccc2C(=O)O)c1C : 64.2
CCOC(=O)[C@H](CCc1ccccc1)N[C@@H](C)C(=O)N1CCC[C@H]1C(=O)O : 65.3
CN(C)[C@@H]1C(O)=C(C(N)=O)C(=O)[C@@]2(O)C(O)=C3C(=O)c4c(O)cccc4[C@@](C)(O)[C@H]3C[C@@H]12 : 66.7

In: Which MCV value is on record for CC(CN1c2ccccc2Sc2ccccc21)N(C)C (stereo unspecified) ?
Out: 62.2

In: Quick one: "O=[N+]([O-])c1ccc2c(c1)Cc1ccccc1-2"
Out: 63.1

In: Now this one: "C#C[C@]1(O)CC[C@H]2[C@@H]3CCC4=Cc5oncc5C[C@]4(C)[C@H]3CC[C@@]21C"
Out: 63.2

In: Try the compound "Clc1c(Cl)c(Cl)c(Cl)c(Cl)c1Cl"
Out: 60.6

In: Similarly, CC(=O)Nc1nnc(S(N)(=O)=O)s1 [ACETAZOLAMIDE] ?
Out: 62.9
